- Method summary: First-in-human SAD and MAD study, pharmacokinetics
- Format: in vivo
- Run conditions: human, plasma, oral, 15 mg, SAD, 15 mg fasted, N=3, Mean ± SD
Property: Cmax (ng/mL)

• Cc1cc(N2CCc3cc(F)ccc3C2)cc(C)c1NC(=O)CC(C)(C)C = 27.3

----------
- Method summary: TMS crossover study, pharmacokinetic analysis
- Format: in vivo, human
- Run conditions: male, human, plasma, oral, 20 mg, Period 2 (N=10), Mean ± SD; read-out: Cmax
Property: Cmax (ng/mL)

- Cc1cc(N2CCc3cc(F)ccc3C2)cc(C)c1NC(=O)CC(C)(C)C: 58.3

----------
- Method summary: First-in-human SAD and MAD study, pharmacokinetics
- Type: in vivo
- Run conditions: human, plasma, oral, 15 mg, MAD, 15 mg Fed, Day 10, N=6, mean
Property: Tmax

- Cc1cc(N2CCc3cc(F)ccc3C2)cc(C)c1NC(=O)CC(C)(C)C: 3.69 h

----------
- Method summary: Food effect study, oral capsule, plasma PK in non-human primate
- Type: in vivo, Cynomolgus monkeys
- Run conditions: cynomolgus monkey, plasma, oral, 3 mg/kg, Group 1 (fasted), 3 mg/kg, 24 h, N=3
- Protocol: The following study was conducted to determine the effect of food when Compound A is orally administered to a non-human primate. Three (n=3) Cynomolgus monkeys of Vietnamese origin were used in this study. At the time of initial dose administration, the monkeys weighed 4.7 to 5.1 kg and were about 4.5 years of age. A certified primate diet (Teklad® Certified Diet 2050C) was fed during the study. For Group 1, the three monkeys were fasted overnight with food returned 4 hours post-dose. […]
Property: concentration at 24 h (ng/mL)

• Cc1cc(N2CCc3cc(F)ccc3C2)cc(C)c1NC(=O)CC(C)(C)C = 42.5

----------
- Method summary: TMS crossover study, pharmacokinetic analysis
- Type: in vivo, human
- Run conditions: male, human, plasma, oral, 20 mg, Full PK Profile (N=16), Range; read-out: AUC0-24
Property: AUC(0-t)

* Cc1cc(N2CCc3cc(F)ccc3C2)cc(C)c1NC(=O)CC(C)(C)C | 383 to 951 ng·h/mL

----------
- Method summary: First-in-human SAD and MAD study, pharmacokinetics
- Type: in vivo
- Run conditions: human, plasma, oral, 15 mg, MAD, 15 mg QD Fasted, Day 7, N=6, mean; read-out: AUC0-t
Property: AUC(0-t)

• Cc1cc(N2CCc3cc(F)ccc3C2)cc(C)c1NC(=O)CC(C)(C)C [Compound A] = 4260 ng·h/mL

----------
- Method summary: Food effect study, oral capsule, plasma PK in non-human primate
- Format: in vivo, Cynomolgus monkeys
- Run conditions: Cynomolgus, Vietnamese origin, cynomolgus monkey, plasma, po, 3 mg/kg, Group 1 (fasted), 3 mg/kg capsule, Mean; read-out: Tmax
Property: Tmax (h)

* Cc1cc(N2CCc3cc(F)ccc3C2)cc(C)c1NC(=O)CC(C)(C)C [Compound A] | 10.7

----------
- Method summary: TMS crossover study, pharmacokinetic analysis
- Format: in vivo, human
- Run conditions: male, human, plasma, oral, 20 mg, Full PK Profile (N=16), Range
Property: Tmax

• Cc1cc(N2CCc3cc(F)ccc3C2)cc(C)c1NC(=O)CC(C)(C)C = 1.92 to 12 h

----------
- Method summary: Food effect study, oral capsule, plasma PK in non-human primate
- Assay type: in vivo, Cynomolgus monkeys
- Run conditions: Cynomolgus, Vietnamese origin, cynomolgus monkey, plasma, po, 3 mg/kg, Group 1 (fasted), 3 mg/kg capsule, individual subjects; read-out: Tmax
Property: Tmax

- Cc1cc(N2CCc3cc(F)ccc3C2)cc(C)c1NC(=O)CC(C)(C)C [Compound A]: 12 h

----------
- Method summary: TMS crossover study, pharmacokinetic analysis
- Assay type: in vivo, human
- Run conditions: male, human, plasma, oral, 20 mg, Full PK Profile Data Set (N=16), Range; read-out: Vz/F normalized
Property: Vd/F (L/kg)

• Cc1cc(N2CCc3cc(F)ccc3C2)cc(C)c1NC(=O)CC(C)(C)C = 6.4

----------
- Method summary: Food effect study, oral capsule, plasma PK in non-human primate
- Format: in vivo, Cynomolgus monkeys
- Run conditions: Cynomolgus, Vietnamese origin, cynomolgus monkey, plasma, po, 3 mg/kg, Group 1 (fasted), 3 mg/kg capsule, individual subjects; read-out: Cmax
Property: Cmax

* Cc1cc(N2CCc3cc(F)ccc3C2)cc(C)c1NC(=O)CC(C)(C)C | 75.1 ng/mL

----------
- Method summary: TMS crossover study, pharmacokinetic analysis
- Assay type: in vivo, human
- Run conditions: male, human, plasma, oral, 20 mg, Period 2 (N=10), Median
Property: Tmax (h)

- Cc1cc(N2CCc3cc(F)ccc3C2)cc(C)c1NC(=O)CC(C)(C)C [Compound A]: 7.83

----------
- Method summary: Food effect study, oral capsule, plasma PK in non-human primate
- Type: in vivo, Cynomolgus monkeys
- Run conditions: cynomolgus monkey, plasma, oral, 3 mg/kg, Group 1 (fasted), 3 mg/kg, 8 h, N=3; read-out: Mean plasma concentration
- Method: The following study was conducted to determine the effect of food when Compound A is orally administered to a non-human primate. Three (n=3) Cynomolgus monkeys of Vietnamese origin were used in this study. At the time of initial dose administration, the monkeys weighed 4.7 to 5.1 kg and were about 4.5 years of age. A certified primate diet (Teklad® Certified Diet 2050C) was fed during the study. For Group 1, the three monkeys were fasted overnight with food returned 4 hours post-dose. […]
Property: concentration at 8 h (ng/mL)

• Cc1cc(N2CCc3cc(F)ccc3C2)cc(C)c1NC(=O)CC(C)(C)C = 49.9

----------
- Method summary: TMS crossover study, pharmacokinetic analysis
- Assay type: in vivo, human
- Run conditions: male, human, plasma, oral, 20 mg, Placebo Treatment Period (carry-over), 6 h, Mean; read-out: Compound A Plasma Concentration
Property: concentration at 6 h (ng/mL)

• Cc1cc(N2CCc3cc(F)ccc3C2)cc(C)c1NC(=O)CC(C)(C)C = 5.28

----------
- Method summary: TMS crossover study, pharmacokinetic analysis
- Assay type: in vivo, human
- Run conditions: male, human, plasma, oral, 20 mg, equivalent of 97.5 mL/h/kg; read-out: Body weight normalized clearance (CL/F)
Property: CL/F

• Cc1cc(N2CCc3cc(F)ccc3C2)cc(C)c1NC(=O)CC(C)(C)C = ~1.6 mL/min/kg

----------
- Method summary: Food effect study, oral capsule, plasma PK in non-human primate
- Assay type: in vivo, Cynomolgus monkeys
- Run conditions: Cynomolgus (Vietnamese origin), cynomolgus monkey, plasma, po, 3 mg/kg, Group 2 (fed), 3 mg/kg capsule, individual subjects; read-out: AUCinfobs
Property: AUC(0-inf) (ng·h/mL)

• Cc1cc(N2CCc3cc(F)ccc3C2)cc(C)c1NC(=O)CC(C)(C)C = 1180

----------
- Method summary: TMS crossover study, pharmacokinetic analysis
- Type: in vivo, human
- Run conditions: male, human, plasma, oral, 20 mg, Overall (N=20), 24 h sampling, Range
- Experimental: A randomized, double-blind, placebo-controlled, transcranial magnetic stimulation (TMS) crossover study investigated the safety, tolerability, pharmacokinetics (PK), and pharmacodynamics (PD) of single doses of Compound A in healthy right-handed male subjects. […] The PK parameters for this study were summarized in two ways. Firstly, PK parameters were calculated where possible using the PK samples collected during each 24 h sampling period for Period 1 and Period 2 separately. […]
Property: half-life

• Cc1cc(N2CCc3cc(F)ccc3C2)cc(C)c1NC(=O)CC(C)(C)C [Compound A] = 8.01 to 14.9 h

----------
- Method summary: First-in-human SAD and MAD study, safety and tolerability
- Type: in vivo
- Run conditions: human, plasma, oral, single doses; read-out: individual Cmax levels up to which well tolerated
Property: Cmax

- Cc1cc(N2CCc3cc(F)ccc3C2)cc(C)c1NC(=O)CC(C)(C)C [Compound A]: ≤ 104 ng/mL

----------
- Method summary: Food effect study, oral capsule, plasma PK in non-human primate
- Format: in vivo, Cynomolgus monkeys
- Run conditions: cynomolgus monkey, plasma, oral, 3 mg/kg, Group 1 (fasted), 3 mg/kg, 48 h, N=3
- Method: The following study was conducted to determine the effect of food when Compound A is orally administered to a non-human primate. Three (n=3) Cynomolgus monkeys of Vietnamese origin were used in this study. At the time of initial dose administration, the monkeys weighed 4.7 to 5.1 kg and were about 4.5 years of age. A certified primate diet (Teklad® Certified Diet 2050C) was fed during the study. For Group 1, the three monkeys were fasted overnight with food returned 4 hours post-dose. […]
Property: concentration at 48 h

- Cc1cc(N2CCc3cc(F)ccc3C2)cc(C)c1NC(=O)CC(C)(C)C: 8.94 ng/mL

----------
- Method summary: TMS crossover study, pharmacokinetic analysis
- Assay type: in vivo, human
- Run conditions: male, human, plasma, oral, 20 mg, Full PK Profile Data Set (N=16), Range
- Experimental: A randomized, double-blind, placebo-controlled, transcranial magnetic stimulation (TMS) crossover study investigated the safety, tolerability, pharmacokinetics (PK), and pharmacodynamics (PD) of single doses of Compound A in healthy right-handed male subjects. […] The PK parameters for this study were summarized in two ways. Firstly, PK parameters were calculated where possible using the PK samples collected during each 24 h sampling period for Period 1 and Period 2 separately. […]
Property: MRT inf

• Cc1cc(N2CCc3cc(F)ccc3C2)cc(C)c1NC(=O)CC(C)(C)C = 33 to 304 h
